B1: Peroxisome proliferator-activated receptor delta, residues 71 to 145; numbered along this chain, Q03181 (parent)
chain: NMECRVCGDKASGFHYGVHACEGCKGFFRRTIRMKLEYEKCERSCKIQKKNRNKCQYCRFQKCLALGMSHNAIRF

- Variants of: B1
- assay overview: abundance fitness (aPCA) (normalised: wild type 0, dead -1); higher = more abundant; growth selection in yeast, the domain comes from the species named
- experimental parameters: Homo sapiens
Examples of variants with documented abundance fitness follow.
Lab note: jot down the number only; don't add units.

Example variants with recorded abundance fitness:
[[record]]
mutation = "R59L"
result_number = 0.098

[[record]]
mutation = "N51T"
result_number = -0.002

[[record]]
mutation = "F60E"
result_number = -1.03

[[record]]
mutation = "F14C"
result_number = -0.076

[[record]]
mutation = "E37T"
result_number = -0.121


Q: Looking for the measured abundance fitness of G23T , can you help?
Ans: -0.203

Q: Looking for the measured abundance fitness of N53G , can you help?
Ans: -0.033

Q: Looking for the measured abundance fitness of G17P , can you help?
Ans: -0.527

Q: Looking for the measured abundance fitness of D9L , can you help?
Ans: -0.63

Q: Looking for the measured abundance fitness of G13M , can you help?
Ans: -0.431

Q: Looking for the measured abundance fitness of M34P , can you help?
Ans: -0.602

Q: Looking for the measured abundance fitness of G13D , can you help?
Ans: -0.103

Q: Looking for the measured abundance fitness of N53Q , can you help?
Ans: -0.152
